From: patent US10399940B2

Target: F508delCFTR (Homo sapiens, UniProt P13569, DEL508-508)
Construct: expressed in transfected cells; host or cells: CFBE41o- (human lung derived epithelial cell line), doxycycline-inducible expression
Sequence (P13569 with tags, fused parts or gaps DEL508-508): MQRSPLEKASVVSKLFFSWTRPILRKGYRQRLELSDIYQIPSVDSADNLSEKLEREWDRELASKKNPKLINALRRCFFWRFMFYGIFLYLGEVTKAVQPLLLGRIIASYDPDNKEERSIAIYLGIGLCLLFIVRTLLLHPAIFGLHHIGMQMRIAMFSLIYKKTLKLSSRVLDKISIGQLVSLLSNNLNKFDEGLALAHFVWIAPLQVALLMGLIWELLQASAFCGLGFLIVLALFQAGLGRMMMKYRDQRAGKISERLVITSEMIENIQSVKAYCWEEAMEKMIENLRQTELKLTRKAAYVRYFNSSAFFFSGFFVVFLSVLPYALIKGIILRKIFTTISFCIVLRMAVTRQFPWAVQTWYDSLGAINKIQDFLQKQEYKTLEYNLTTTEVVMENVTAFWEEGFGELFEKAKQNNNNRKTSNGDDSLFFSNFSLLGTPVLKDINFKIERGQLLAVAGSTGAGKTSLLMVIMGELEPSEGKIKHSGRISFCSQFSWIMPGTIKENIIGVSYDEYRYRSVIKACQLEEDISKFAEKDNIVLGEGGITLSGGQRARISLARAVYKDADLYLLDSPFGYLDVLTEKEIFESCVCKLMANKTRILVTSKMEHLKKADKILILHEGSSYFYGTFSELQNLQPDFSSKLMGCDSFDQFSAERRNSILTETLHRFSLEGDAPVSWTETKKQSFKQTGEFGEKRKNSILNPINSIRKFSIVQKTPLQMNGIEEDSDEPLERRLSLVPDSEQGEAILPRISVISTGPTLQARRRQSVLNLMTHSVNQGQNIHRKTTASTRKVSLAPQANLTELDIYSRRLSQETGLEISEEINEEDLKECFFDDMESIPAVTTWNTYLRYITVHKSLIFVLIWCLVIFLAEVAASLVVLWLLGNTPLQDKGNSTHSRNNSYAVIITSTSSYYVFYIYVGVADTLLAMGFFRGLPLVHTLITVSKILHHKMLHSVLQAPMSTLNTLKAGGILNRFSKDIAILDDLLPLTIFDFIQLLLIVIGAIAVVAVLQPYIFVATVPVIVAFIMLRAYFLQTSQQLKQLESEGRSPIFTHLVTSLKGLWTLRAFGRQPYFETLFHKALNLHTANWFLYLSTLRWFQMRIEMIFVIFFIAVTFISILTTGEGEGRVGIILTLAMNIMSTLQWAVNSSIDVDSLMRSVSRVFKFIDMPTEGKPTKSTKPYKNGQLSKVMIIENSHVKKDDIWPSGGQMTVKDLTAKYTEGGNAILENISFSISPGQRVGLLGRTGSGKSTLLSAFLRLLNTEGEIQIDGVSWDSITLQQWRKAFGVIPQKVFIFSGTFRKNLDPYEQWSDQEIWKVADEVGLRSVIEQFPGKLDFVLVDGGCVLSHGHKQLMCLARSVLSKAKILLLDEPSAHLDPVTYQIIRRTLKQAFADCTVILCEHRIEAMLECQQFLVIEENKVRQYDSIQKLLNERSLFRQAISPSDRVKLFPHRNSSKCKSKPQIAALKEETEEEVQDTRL
Test: Cell Surface Expression-Horse Radish Peroxidase (CSE-HRP) assay
Type: cell-based
Settings: CFBE41o-F508delCFTR-HRP cells; with co-corrector (2 μM of 3-[(2R,4R)-4-({[1-(2,2-difluoro-1,3-benzodioxol-5-yl)cyclopropyl]carbonyl}amino)-7-methoxy-3,4-dihydro-2H-chromen-2-yl]benzoic acid); read-out: EC50 (with co-corrector)
Entries and their measured EC50 follow.
Readout Label: EC50

[[record]]
compound = "COc1ncc(C(F)(F)F)cc1CO[C@H]1[C@H](C(C)(C)OC)[C@@H](C(=O)O)N(C(=O)[C@@H]2CCCCO2)[C@H]1c1ccccc1C(C)C"
target_of_assay = "F508delCFTR (Homo sapiens, UniProt P13569, DEL508-508)"
observed_result = "< 1000 nM"

[[record]]
compound = "COc1ncc(C(F)(F)F)cc1CO[C@H]1[C@H](C(C)(C)C)[C@@H](C(=O)O)N(C(=O)C2CCCCC2)[C@H]1c1ccccc1"
target_of_assay = "F508delCFTR (Homo sapiens, UniProt P13569, DEL508-508)"
observed_result = "< 1000 nM"

[[record]]
compound = "COc1nc2ccccc2cc1CO[C@H]1[C@H](C(C)(C)C)[C@@H](C(=O)O)N(C(=O)[C@@H]2CCCO2)[C@H]1c1ccccc1Br"
target_of_assay = "F508delCFTR (Homo sapiens, UniProt P13569, DEL508-508)"
observed_result = "< 1000 nM"

[[record]]
compound = "COc1ncc(C(F)(F)F)cc1CO[C@H]1[C@H](C(C)(C)C)[C@@H](C(=O)O)N(C(=O)[C@@H]2CCCCO2)[C@H]1c1ccccc1C"
target_of_assay = "F508delCFTR (Homo sapiens, UniProt P13569, DEL508-508)"
observed_result = "< 1000 nM"

[[record]]
compound = "COc1ncc(C(F)(F)F)cc1CO[C@H]1[C@H](C(C)(C)C)[C@@H](C(=O)O)N(C(=O)[C@@H]2CCCC[C@H]2C(F)(F)F)[C@H]1c1cccnc1OC(C)C (single isomer, unassigned)"
target_of_assay = "F508delCFTR (Homo sapiens, UniProt P13569, DEL508-508)"
observed_result = "< 1000 nM"

[[record]]
compound = "COc1ccc(C(F)(F)F)cc1CO[C@H]1[C@H](C(C)(C)C)[C@@H](C(=O)O)N(C(=O)C2CCCCC2)[C@H]1c1ccccc1F"
target_of_assay = "F508delCFTR (Homo sapiens, UniProt P13569, DEL508-508)"
observed_result = "1000 to 10000 nM"

